Value source: patent US20250270343A1

# pKd per record follows
Target: T1, soluble human GPNMB (recombinant extracellular domain) (human, UniProt Q14956 23-498)
T1 construct: also called huGPNMB; recombinant human GPNMB extracellular domain; not shown: C-terminal polyhistidine or Avi-His tag
T1 sequence: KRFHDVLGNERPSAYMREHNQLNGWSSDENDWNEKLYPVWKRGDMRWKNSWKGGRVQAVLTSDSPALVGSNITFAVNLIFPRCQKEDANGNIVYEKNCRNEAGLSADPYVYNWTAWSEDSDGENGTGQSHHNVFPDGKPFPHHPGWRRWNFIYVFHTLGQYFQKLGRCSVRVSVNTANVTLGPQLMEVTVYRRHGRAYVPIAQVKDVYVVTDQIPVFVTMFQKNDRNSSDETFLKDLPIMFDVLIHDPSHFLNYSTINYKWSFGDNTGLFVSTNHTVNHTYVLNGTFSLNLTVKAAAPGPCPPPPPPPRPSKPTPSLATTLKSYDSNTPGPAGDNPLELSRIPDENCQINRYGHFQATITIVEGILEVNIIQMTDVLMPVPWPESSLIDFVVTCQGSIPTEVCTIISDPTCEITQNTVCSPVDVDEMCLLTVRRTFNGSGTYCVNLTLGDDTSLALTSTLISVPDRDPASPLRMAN
Assay: SPR Biacore, IgG captured
The value called pKd is obtained by taking minus log10 of the concentration in mol/L.

# count of solved cases: 4
binder	value
anti-GPNMB antibody GPN-94 (antibody, V domains shown) VH: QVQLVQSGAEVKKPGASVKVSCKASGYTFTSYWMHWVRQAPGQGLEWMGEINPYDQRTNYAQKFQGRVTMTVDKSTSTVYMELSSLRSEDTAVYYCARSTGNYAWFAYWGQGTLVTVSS VL: DIVMTQSPDSLAVSLGERATINCKTSQDVSPSLAWYQQKPGQPPKLLIYSASKRYTGVPDRFSGSGSGTDFTLTISSLQAEDVAVYYCQQHYSIPLTFGGGTKVEIK	8.27
anti-GPNMB antibody GPN-92 (antibody, V domains shown, humanized GPN-08) VH: QVQLVQSGAEVKKPGASVKVSCKASGYTFTSYWMHWVRQAPGQGLEWMGEINPSDGRTNYAQKFQGRVTMTVDKSTSTVYMELSSLRSEDTAVYYCARSGGNYAWFAYWGQGTLVTVSS VL: DIVMTQSPDSLAVSLGERATINCKASQDVSPSLAWYQQKPGQPPKLLIYSASYRYTGVPDRFSGSGSGTDFTLTISSLQAEDVAVYYCQQHYSIPLTFGGGTKVEIK	7.18
anti-GPNMB antibody GPN-98 (antibody, V domains shown) VH: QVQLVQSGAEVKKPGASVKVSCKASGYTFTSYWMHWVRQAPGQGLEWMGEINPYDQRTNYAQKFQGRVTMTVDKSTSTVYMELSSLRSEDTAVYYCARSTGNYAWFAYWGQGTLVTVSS VL: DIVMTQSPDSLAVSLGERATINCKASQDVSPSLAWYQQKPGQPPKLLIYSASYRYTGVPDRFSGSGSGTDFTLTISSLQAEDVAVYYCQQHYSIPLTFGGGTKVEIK	7.92
anti-GPNMB antibody GPN-93 (antibody, V domains shown) VH: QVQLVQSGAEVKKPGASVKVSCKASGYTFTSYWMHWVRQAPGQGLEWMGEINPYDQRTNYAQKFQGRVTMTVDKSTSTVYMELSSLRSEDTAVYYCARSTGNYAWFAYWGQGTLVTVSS VL: DIVMTQSPDSLAVSLGERATINCKTSQDVSPSLAWYQQKPGQPPKLLIYSASKRYTGVPDRFSGSGSGTDFTLTISSLQAEDVAVYYCQQHYSIPLQFGGGTKVEIK	8.06

Consider the additional binder presented here.
Would you kindly share the measured pKd for anti-GPNMB antibody GPN-83 (antibody, V domains shown) VH: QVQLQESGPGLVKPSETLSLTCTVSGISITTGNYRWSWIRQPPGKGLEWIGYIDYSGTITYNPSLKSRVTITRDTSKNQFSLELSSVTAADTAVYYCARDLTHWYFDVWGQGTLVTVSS VL: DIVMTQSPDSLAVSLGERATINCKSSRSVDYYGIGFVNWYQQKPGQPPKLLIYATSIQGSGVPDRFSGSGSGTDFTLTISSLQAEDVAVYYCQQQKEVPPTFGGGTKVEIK ?
8.12
